Kindly state cAMP, CYCLASE GLP/GIP/CT (RIN) EC50 for each of the entries shown.
Target desc: T1, GLP-1 receptor, endogenous in RINm5f cells (rat (RIN-m5F are called rat pancreas insulinoma cells)), P32301
T1 chain: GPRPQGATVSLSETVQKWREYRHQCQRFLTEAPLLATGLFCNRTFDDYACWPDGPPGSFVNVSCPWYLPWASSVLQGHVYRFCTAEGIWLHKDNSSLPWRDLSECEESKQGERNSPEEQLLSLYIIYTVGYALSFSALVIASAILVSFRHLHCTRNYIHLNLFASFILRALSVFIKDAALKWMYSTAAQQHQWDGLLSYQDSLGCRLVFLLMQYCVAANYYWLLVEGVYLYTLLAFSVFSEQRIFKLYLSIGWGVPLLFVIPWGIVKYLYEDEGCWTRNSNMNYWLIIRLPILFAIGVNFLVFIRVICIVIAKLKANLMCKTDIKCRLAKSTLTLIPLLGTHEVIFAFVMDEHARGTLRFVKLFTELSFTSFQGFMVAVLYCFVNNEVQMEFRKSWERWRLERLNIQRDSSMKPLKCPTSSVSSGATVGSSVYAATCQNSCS
Protocol summary: cell-based or functional assay
Answers are plain numbers, in nM.

Report cAMP, CYCLASE GLP/GIP/CT (RIN) EC50 for each item below.
1. HAEGTFTSDVSSYLEGQAAKEFIAWLVKGRGGG (not fully specified; modifications not checked) [Cmpd 4845, GLP-1-(7-37)-GG-(S)-2,6-diamino-1-(thiazolidin-2-cyano-3-y1)hexan-1-one amide]
2. HAEGTFTSDVSSYLEGQAAKEFIAWLVKGRGGG (not fully specified; modifications not checked) [Cmpd 4844, GLP-1-(7-37)-GG(S)-2,6-diamino-1-(thiazolidin-3-y1)hexan-1-one amide]
3. HAEGTFTSDVSSYLEGQAAKEFIAWLVKGRPSGGGIPI (modifications not checked) [Cmpd 4888]
4. HAEGTFTSDVSSYLEGQAAKEFIAWLVKGRGGGGIPI (modifications not checked) [Cmpd 4887]
5. HAEGTFTSDVSSYLEGQAAKEFIAWLVKGRGGGIPI (modifications not checked) [Cmpd 4957]

0.4
0.13
0.17
0.22
0.51

# credit: patent US20100029554A1
